# TARGET UNDER TEST: DCN1 (DCUND1) protein PONY domain (Homo sapiens (Human))
# Sequence (Q96GG9 60-248): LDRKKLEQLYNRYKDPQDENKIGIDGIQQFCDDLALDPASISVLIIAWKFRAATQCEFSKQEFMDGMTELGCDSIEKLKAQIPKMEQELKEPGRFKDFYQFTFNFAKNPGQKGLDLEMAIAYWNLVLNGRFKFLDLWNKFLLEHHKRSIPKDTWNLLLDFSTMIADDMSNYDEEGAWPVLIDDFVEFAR
# TEST METHOD NOTES: TR-FRET assay, DCN1 binding with FAM-labeled probe
# MEASUREMENT CONTEXT: TR FRET IC50 1 hr (nM), 1 hr after treatment with compound
Recorded IC50 for the following compounds

COMPOUND	IC50
CCN1C(=O)[C@@H](NC(=O)c2cccc(C(F)(F)F)c2)[C@@H](c2ccc(F)cc2)c2c(CNC(=O)/C=C(\C)C(=O)OC)nn(-c3ccccc3)c21 (racemic) [Compound I-150]	1000 to 3000 nM
CCN1C(=O)[C@@H](NC(=O)c2nccc(C(F)(F)F)n2)[C@H](c2ccc(F)cc2)c2c(CC(=O)N[C@H](C)C#N)nn(-c3ccccc3)c21 (single isomer, unassigned) [Compound I-607]	200 to 1000 nM
CCN1C(=O)[C@H](NC(=O)c2cccc(C(F)(F)F)c2)[C@@H](c2ccc(F)cc2)c2c(CN(C)C#N)nn(-c3ccccc3)c21 (single isomer, unassigned) [Compound I-82]	1000 to 3000 nM
CCN1C(=O)[C@@H](NC(=O)c2sc(NC(C)=O)nc2C)[C@@H](C2CC2)c2c(C(=O)N3[C@H](C#N)C[C@H]4C[C@H]43)nn(C3CCOCC3)c21 [Compound I-471]	1000 to 3000 nM
CCN1C(=O)[C@@H](NC(=O)c2cccc(C(F)(F)F)c2)[C@@H](c2ccc(F)cc2)c2c(C(=O)N3CC(F)(F)C[C@H]3C#N)nn(-c3ccccc3)c21 (racemic) [Compound I-251]	≤ 200 nM
